B1: MIA2 (parent)
chain: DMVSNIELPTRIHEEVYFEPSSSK

- Variants of: B1
- assay.summary: protein stability index of a GFP-peptide fusion (GPS, HEK-293T) (PSI 1-6); higher = more stable;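 note: lentivirally expressed fusions sorted by FACS into six bins by GFP to DsRed ratio, PSI derived from sequencing read proportions per bin multiplied by bin number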
- reported.conditions: c terminus: a fixed tail appended
Respond with Met for protein stability index values of 4 and above, Not met for values below.

Is it the case that P9I has protein stability index reaching or exceeding 4?
Not met

# iterate: Y17Q
Met

# iterate: I12P
Not met

# iterate: R11E
Met

# iterate: Y17W
Met

# iterate: S4Q
Not met

# iterate: S21A
Not met

# iterate: Y17R
Met

# iterate: L8F
Met

# iterate: R11V
Met

# iterate: P9M
Not met

# iterate: L8P
Met

# iterate: S21N
Met

# iterate: I6M
Met

# iterate: S21T
Not met

# iterate: I6A
Met

# iterate: Y17D
Met

# iterate: E14L
Not met

# iterate: E15K
Not met

# iterate: Y17C
Met
